TARGET_ENTITY: human MetAP2 enzyme (Homo sapiens, UniProt P50579)
Sequence (P50579 whole entry): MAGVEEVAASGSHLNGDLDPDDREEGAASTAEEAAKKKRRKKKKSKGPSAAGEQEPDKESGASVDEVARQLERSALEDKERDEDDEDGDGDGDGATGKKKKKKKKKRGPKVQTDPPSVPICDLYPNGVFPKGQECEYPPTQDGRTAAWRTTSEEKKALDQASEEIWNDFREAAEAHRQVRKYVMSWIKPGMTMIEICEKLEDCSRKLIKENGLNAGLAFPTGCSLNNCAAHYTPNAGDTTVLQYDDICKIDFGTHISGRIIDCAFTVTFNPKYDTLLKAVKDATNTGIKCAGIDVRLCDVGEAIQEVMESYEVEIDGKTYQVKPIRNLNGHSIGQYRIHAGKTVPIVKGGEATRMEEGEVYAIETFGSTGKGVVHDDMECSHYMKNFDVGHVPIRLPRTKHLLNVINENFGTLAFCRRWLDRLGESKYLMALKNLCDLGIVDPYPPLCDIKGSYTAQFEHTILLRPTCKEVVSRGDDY
TEST_NAME: MetAP2 enzyme assay, enzyme complexed with cobalt ions
CONDITION_CONTEXT: MetAP2 Co pIC50, MetAP2 enzyme complexed with cobalt ions; Met-AMC substrate at Km
OBSERVATION_TYPE: IC50 (nM)
Provide the reading as a plain figure in nM.

Request: Can you share its IC50? I mean this compound: FC(F)(F)c1cc(-c2cncc3ccccc23)c2cn[nH]c2c1
Response: 50.1

Request: Can you share its IC50? I mean this compound: FC(F)(F)c1cc(-c2c[nH]c3ncncc23)c2cn[nH]c2c1
Response: 63.1

Request: Can you share its IC50? I mean this compound: COc1ccc(C(=O)N2CCN(C)C(=O)C2)cc1-c1cc(C(F)(F)F)cc2[nH]ncc12
Response: 63.1

Request: Can you share its IC50? I mean this compound: Cc1cc(=O)n(CC#N)cc1-c1cc(C(F)(F)F)cc2[nH]ncc12
Response: 79.4

Request: Can you share its IC50? I mean this compound: Cc1cc(Cn2nc(CO)c(-c3cc(C(F)(F)F)cc4[nH]ncc34)c2C)on1 (single isomer, unassigned)
Response: 6.31

Request: Can you share its IC50? I mean this compound: FC(F)(F)c1cc(-c2ccc(N3CCOCC3)nc2)c2cn[nH]c2c1
Response: 20

---

Kindly state pIC50 for each of the entries shown.
TARGET_ENTITY: human MetAP2 enzyme (Homo sapiens, UniProt P50579)
TEST_NAME: MetAP2 enzyme assay, enzyme complexed with manganese ions
CONDITION_CONTEXT: MetAP2 Mn pIC50, MetAP2 enzyme complexed with manganese ions; Met-AMC substrate at Km
Scale note: pIC50 = -log10(concentration in M).

Request: Can you share its pIC50? I mean this molecule: COc1ncc(-c2cc(C(F)(F)F)cc3[nH]ncc23)c2cc[nH]c12
Response: 8.00

Request: Can you share its pIC50? I mean this molecule: COc1ccc(-c2cc(C(F)(F)F)cc3[nH]ncc23)c(C)n1
Response: 7.90

Request: Can you share its pIC50? I mean this molecule: Cn1cc(-c2cc(C(F)(F)F)cc3[nH]ncc23)ccc1=O
Response: 8.20

Request: Can you share its pIC50? I mean this molecule: COC(=O)c1ccc(OC)c(-c2cc(C(F)(F)F)cc3[nH]ncc23)c1
Response: 7.80

Request: Can you share its pIC50? I mean this molecule: Cc1nc(N2CCCC2)ccc1-c1cc(C(F)(F)F)cc2[nH]ncc12
Response: 7.80

Request: Can you share its pIC50? I mean this molecule: C[C@@H](O)CNc1ncc(-c2cc(C(F)(F)F)cc3[nH]ncc23)cn1
Response: 8.10

Request: Can you share its pIC50? I mean this molecule: FC(F)(F)c1cc(-c2cc[nH]n2)c2cn[nH]c2c1
Response: 8.00

Request: Can you share its pIC50? I mean this molecule: Cc1cnc(N)c(-c2cc(C(F)(F)F)cc3[nH]ncc23)c1
Response: 8.20

Request: Can you share its pIC50? I mean this molecule: NCC(O)c1ccccc1-c1cc(C(F)(F)F)cc2[nH]ncc12 (stereo not drawn)
Response: 7.90

Request: Can you share its pIC50? I mean this molecule: Cn1cc(-c2cc(C(F)(F)F)cc3[nH]ncc23)c(CO)n1
Response: 8.20

Request: Can you share its pIC50? I mean this molecule: NS(=O)(=O)c1ccc(-c2cc(C(F)(F)F)cc3[nH]ncc23)cc1F
Response: 8.20

Request: Can you share its pIC50? I mean this molecule: FC(F)(F)c1cc(-c2cncc3ccccc23)c2cn[nH]c2c1
Response: 7.80

---

TARGET_ENTITY: human MetAP2 enzyme (Homo sapiens)
TEST_NAME: MetAP2 enzyme assay, enzyme complexed with cobalt ions
CONDITION_CONTEXT: MetAP2 Co pIC50, MetAP2 enzyme complexed with cobalt ions; Met-AMC substrate at Km
pIC50: −log10 of the molar value.
Decide using pIC50: a value greater than or equal to 7 is Y, a smaller one is N.

Request: Can Cc1[nH]c(=O)[nH]c(=O)c1-c1cc(C(F)(F)F)cc2[nH]ncc12 [Example 204] be said to have pIC50 at or above 7?
Response: N

Request: Can COCCOc1ccc(-c2cc(C(F)(F)F)cc3[nH]ncc23)c(C)n1 [Example 362] be said to have pIC50 at or above 7?
Response: Y

Request: Can Cc1nn(-c2nnn[nH]2)c(C)c1-c1cc(C(F)(F)F)cc2[nH]ncc12 [Example 169] be said to have pIC50 at or above 7?
Response: N

Request: Can CNC(=O)Cn1c(=O)c(-c2cc(C(F)(F)F)cc3[nH]ncc23)cn(C)c1=O [Example 301] be said to have pIC50 at or above 7?
Response: N

Request: Can Cc1ccc(-c2cc(C(F)(F)F)cc3[nH]ncc23)c(N)n1 [Example 211] be said to have pIC50 at or above 7?
Response: Y

Request: Can FC(F)(F)c1cc(-c2cnn(CCN3CCOCC3)c2)c2cn[nH]c2c1 [Example 74] be said to have pIC50 at or above 7?
Response: Y

Request: Can FC(F)(F)c1cc(-c2cnc3c(c2)OCCN3)c2cn[nH]c2c1 [Example 4] be said to have pIC50 at or above 7?
Response: Y

Request: Can Nc1cc(Cl)cnc1-c1cc(C(F)(F)F)cc2[nH]ncc12 [Example 216] be said to have pIC50 at or above 7?
Response: N

Request: Can CNC(=O)c1ccc(OC)c(-c2cc(C(F)(F)F)cc3[nH]ncc23)c1 [Example 181] be said to have pIC50 at or above 7?
Response: Y

Request: Can CNS(=O)(=O)c1cccc(-c2cc(C(F)(F)F)cc3[nH]ncc23)c1 [Example 104] be said to have pIC50 at or above 7?
Response: N

---

TARGET_ENTITY: human MetAP2 enzyme (Homo sapiens, UniProt P50579)
TEST_NAME: MetAP2 enzyme assay, enzyme complexed with manganese ions
CONDITION_CONTEXT: MetAP2 Mn pIC50, MetAP2 enzyme complexed with manganese ions; Met-AMC substrate at Km
pIC50: −log10 of the molar value.
Decide using pIC50: a value greater than or equal to 8 is Fulfilled, a smaller one is Not fulfilled.

Request: Can Cc1nc(CCS(C)(=O)=O)ccc1-c1cc(C(F)(F)F)cc2[nH]ncc12 be said to have pIC50 at or above 8?
Response: Fulfilled

Request: Can CCn1cc(-c2cc(C(F)(F)F)cc3[nH]ncc23)c(C)n1 be said to have pIC50 at or above 8?
Response: Fulfilled

Request: Can OCc1cccc(-c2cc(C(F)(F)F)cc3[nH]ncc23)c1 be said to have pIC50 at or above 8?
Response: Fulfilled

Request: Can FC(F)(F)c1cc(-c2cccc(N3CCOCC3)c2)c2cn[nH]c2c1 be said to have pIC50 at or above 8?
Response: Not fulfilled

Request: Can O=C(c1ncc(-c2cc(C(F)(F)F)cc3[nH]ncc23)cn1)N1CCOCC1 be said to have pIC50 at or above 8?
Response: Not fulfilled

Request: Can Cn1cnc(N)c(-c2cc(C(F)(F)F)cc3[nH]ncc23)c1=O be said to have pIC50 at or above 8?
Response: Not fulfilled

Request: Can CCNC(=O)c1cccc(-c2cc(C(F)(F)F)cc3[nH]ncc23)c1 be said to have pIC50 at or above 8?
Response: Fulfilled

Request: Can FC(F)(F)c1cc(-c2cccnc2OCc2ccccc2)c2cn[nH]c2c1 be said to have pIC50 at or above 8?
Response: Not fulfilled

Request: Can O=C1Cc2cc(-c3cc(C(F)(F)F)cc4[nH]ncc34)ccc2N1 be said to have pIC50 at or above 8?
Response: Fulfilled

---

TARGET_ENTITY: human MetAP2 enzyme (Homo sapiens, UniProt P50579)
TEST_NAME: MetAP2 enzyme assay, enzyme complexed with cobalt ions
CONDITION_CONTEXT: MetAP2 Co pIC50, MetAP2 enzyme complexed with cobalt ions; Met-AMC substrate at Km
OBSERVATION_TYPE: IC50 (nM)
Provide the reading as a plain figure in nM.

Request: Can you share its IC50? I mean this molecule: NS(=O)(=O)c1ccc(-c2cc(C(F)(F)F)cc3[nH]ncc23)cn1 [Example 345]
Response: 100

Request: Can you share its IC50? I mean this molecule: Cc1noc(C)c1-c1cc(C(F)(F)F)cc2[nH]ncc12 [Example 80]
Response: 79.4

Request: Can you share its IC50? I mean this molecule: CN1CCN(C(=O)c2c[nH]c(=O)c(-c3cc(C(F)(F)F)cc4[nH]ncc34)c2)CC1 [Example 297]
Response: 158

Request: Can you share its IC50? I mean this molecule: NC(=O)c1ccc(-c2cc(C(F)(F)F)cc3[nH]ncc23)cn1 [Example 251]
Response: 63.1

Request: Can you share its IC50? I mean this molecule: Cc1cc2cncn2cc1-c1cc(C(F)(F)F)cc2[nH]ncc12 [Example 388]
Response: 63.1

Request: Can you share its IC50? I mean this molecule: NC(=O)c1cc(-c2cc(C(F)(F)F)cc3[nH]ncc23)c[nH]c1=O [Example 231]
Response: 158

Request: Can you share its IC50? I mean this molecule: CN1CCN(C(=O)c2cnc(N)c(-c3cc(C(F)(F)F)cc4[nH]ncc34)c2)CC1 [Example 221]
Response: 63.1
